assay-explanation: Inhibitory activity expressed as the concentration required to inhibit platelet-activating factor (PAF) induced maximum aggregation by 50%
pIC50: −log10 of the molar value.
Mark n for pIC50 values under 6, and y for everything at or above.

See these solved cases before continuing.
Check the entry CCCCCCCCCCCCCCCCOCC1COC(COC(=O)N(Cc2cccc[n+]2CC)C(C)=O)O1 (configuration not stated) : does pIC50 equal or exceed 6? y

hey, is pIC50 for this one >= 6? CCCCCCCCCCCCCCCCCCOCC1COC(COC(=O)N=c2ccn(CC)cc2)C1 (configuration not stated) n

Please check the record CCCCCCCCCCCCCCCCCCOCC1OCC(COC(=O)N(Cc2cccc[n+]2CC)C(C)=O)O1 (configuration not stated) and state if its pIC50 is at or above 6. y

Threshold query (pIC50 >= 6) on CCCCCCCCCCCCCCCCOCC1COC(COC(=O)N(C(C)=O)c2ccc[n+](CC)c2)C1 (configuration not stated) n

New cases:
Does the molecule CCCCCCCCCCCCCCC1COC(COP(=O)([O-])OCC[n+]2ccsc2)C1 (configuration not stated) have recorded pIC50 that is 6 or more? n
